Ref: ChEMBL document CHEMBL1140441

Target: Glutamine synthetase (Escherichia coli K-12, UniProt P0A9C5)
Sequence (P0A9C5 whole entry): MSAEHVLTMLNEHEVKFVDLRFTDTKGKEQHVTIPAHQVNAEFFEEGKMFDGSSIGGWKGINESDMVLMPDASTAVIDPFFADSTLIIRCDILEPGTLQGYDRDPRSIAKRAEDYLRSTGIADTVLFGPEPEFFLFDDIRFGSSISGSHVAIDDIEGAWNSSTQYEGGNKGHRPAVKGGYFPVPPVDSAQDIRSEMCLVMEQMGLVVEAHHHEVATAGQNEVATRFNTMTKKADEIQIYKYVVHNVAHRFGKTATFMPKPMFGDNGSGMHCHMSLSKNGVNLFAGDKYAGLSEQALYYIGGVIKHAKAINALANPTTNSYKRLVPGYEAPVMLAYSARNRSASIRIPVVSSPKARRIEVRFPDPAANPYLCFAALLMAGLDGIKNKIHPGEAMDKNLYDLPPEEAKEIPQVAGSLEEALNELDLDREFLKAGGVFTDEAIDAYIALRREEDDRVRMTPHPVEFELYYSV
Test: Binding affinity towards glutamine synthetase
Please assign N whenever Ki is at or above 3 µM, and Y whenever it is below.

# TODO verify Ki < 3 µM strictly for this compound: N[C@@H](CCP(=O)(O)CCC(=O)O)C(=O)O
N

And then CP(=O)(O)CC[C@H](N)C(=O)O , what is it?
Y

And then NCP(=O)(O)CC[C@H](N)C(=O)O , what is it?
Y

And then NCCP(=O)(O)CC[C@H](N)C(=O)O , what is it?
N

And then N[C@@H](CCP(=O)(O)CO)C(=O)O , what is it?
Y

And then C[C@@H](N)P(=O)(O)CC[C@H](N)C(=O)O , what is it?
N

And then C[C@H](N)P(=O)(O)CC[C@H](N)C(=O)O (mixture of isomers) , what is it?
N

* * *

Target: Glutamine synthetase (Escherichia coli K-12)
Assay: Binding affinity towards glutamine synthetase
measurement.kind: log10 of Ki (log10 of the value in µM)
All values: log10 Ki [µM].

Would you be so kind as to report log10 of Ki for each listed record?
1. N[C@@H](CCP(=O)(O)CO)C(=O)O
2. CP(=O)(O)CC[C@H](N)C(=O)O
3. N[C@@H](CCP(=O)(O)CCC(=O)O)C(=O)O
4. NCP(=O)(O)CC[C@H](N)C(=O)O
5. C[C@H](N)P(=O)(O)CC[C@H](N)C(=O)O (mixture of isomers)
6. C[C@@H](N)P(=O)(O)CC[C@H](N)C(=O)O

0.32
-0.22
2.17
-0.23
0.57
0.53

GET /values?readout=log10 of Ki&system=Glutamine synthetase (Escherichia coli K-12)&item= NCCP(=O)(O)CC[C@H](N)C(=O)O
1.11
